- target_or_system: panel of 60 human kinases (Homo sapiens)
- Construct: purchased Reaction Biology Corp
- assay_protocol: Radiolabeled ATP kinase assay, panel of 60 kinases (Table S5)
- Assay type: biochemical
- run_conditions: CDK6/cyclin D1; 0.1 μM; 10 μM ATP; read-out: % Enzyme Activity (relative to DSMO controls)
Could you please report measured remaining activity at 0.1 µM for the items listed next?
Dear colleague, please return just the value in %, with no unit written.

q: Return reported remaining activity at 0.1 µM. Input compound: Cc1nn(C)c(C)c1-c1c[nH]c2ncc(-c3ccc(CN4CCN(C)CC4)cc3)cc12 [Compound 7ai]
a: 47.9

q: Specify remaining activity at 0.1 µM for COc1ccccc1-c1c[nH]c2ncc(-c3ccc(CN4CCN(C)CC4)cc3)cc12 [Compound 7at] and stop.
a: 7.23

q: Note remaining activity at 0.1 µM for the compound shown: CN1CCN(Cc2ccc(-c3cnc4[nH]cc(-c5ccoc5)c4c3)cc2)CC1 [Compound 7w]
a: 58.5

q: Tell me its remaining activity at 0.1 µM given CN1CCN(Cc2ccc(-c3cnc4[nH]cc(-c5cnn(Cc6ccccc6)c5)c4c3)cc2)CC1 [Compound 7ah] as the entry.
a: 28.6

q: Return value of remaining activity at 0.1 µM for input CN1CCN(Cc2ccc(-c3cnc4[nH]cc(-c5ccc6c(c5)OCCO6)c4c3)cc2)CC1 [Compound 7d] , no commentary.
a: 15.1

* * *

- target_or_system: panel of 60 human kinases (Homo sapiens, UniProt P11802)
- Construct: purchased Reaction Biology Corp
- Sequence (P11802 whole entry): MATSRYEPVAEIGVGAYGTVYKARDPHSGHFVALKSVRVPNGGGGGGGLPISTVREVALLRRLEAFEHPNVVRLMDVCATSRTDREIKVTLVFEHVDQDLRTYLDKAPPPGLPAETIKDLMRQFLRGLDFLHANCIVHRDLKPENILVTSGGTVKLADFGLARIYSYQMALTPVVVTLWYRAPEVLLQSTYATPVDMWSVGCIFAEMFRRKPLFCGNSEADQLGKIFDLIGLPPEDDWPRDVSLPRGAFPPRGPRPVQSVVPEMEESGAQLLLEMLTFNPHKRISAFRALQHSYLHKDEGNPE
- assay_protocol: Radiolabeled ATP kinase assay, panel of 60 kinases (Table S5)
- Type: biochemical
- run_conditions: CDK4/cyclin D1; 0.1 μM; 10 μM ATP; read-out: % Enzyme Activity (relative to DSMO controls)
# yes = remaining activity at 0.1 µM below 30% (exclusive); no = remaining activity at 0.1 µM at/above 30%

q: Item `CN1CCN(Cc2ccc(-c3cnc4[nH]cc(-c5cccc(Cl)c5)c4c3)cc2)CC1` : remaining activity at 0.1 µM beneath 30%, strictly?
a: no

q: Regarding `CN1CCN(Cc2ccc(-c3cnc4[nH]cc(-c5ccoc5)c4c3)cc2)CC1` , kindly confirm whether its remaining activity at 0.1 µM is beneath 30%.
a: no

q: # check: remaining activity at 0.1 µM < 30% for `CN1CCN(Cc2ccc(-c3cnc4[nH]cc(-c5ccncc5)c4c3)cc2)CC1`
a: yes

q: Below 30% on remaining activity at 0.1 µM? Entry CN1CCN(Cc2ccc(-c3cnc4[nH]cc(-c5ccc6[nH]ccc6c5)c4c3)cc2)CC1 [Compound 1, reference compound]
a: no

q: Below 30% on remaining activity at 0.1 µM? Entry `CN1CCN(Cc2ccc(-c3cnc4[nH]cc(-c5ccc6c(c5)OCCO6)c4c3)cc2)CC1`
a: yes

q: Regarding `Cc1nn(C)c(C)c1-c1c[nH]c2ncc(-c3ccc(CN4CCN(C)CC4)cc3)cc12` , kindly confirm whether its remaining activity at 0.1 µM is beneath 30%.
a: no

q: hey, is remaining activity at 0.1 µM for `COc1ccccc1-c1c[nH]c2ncc(-c3ccc(CN4CCN(C)CC4)cc3)cc12` lower than 30% or not?
a: yes

q: Please check: remaining activity at 0.1 µM for `CN1CCN(Cc2ccc(-c3cnc4[nH]cc(-c5ccccc5Cl)c4c3)cc2)CC1` , strictly under 30% or not?
a: no

q: I'd appreciate it if you could check whether `CN1CCN(Cc2ccc(-c3cnc4[nH]cc(-c5cnn(Cc6ccccc6)c5)c4c3)cc2)CC1` has remaining activity at 0.1 µM smaller than 30%.
a: yes

* * *

- target_or_system: MLK1/MAP3K9 (Homo sapiens)
- Construct: purchased Reaction Biology Corp
- Sequence (P80192 whole entry): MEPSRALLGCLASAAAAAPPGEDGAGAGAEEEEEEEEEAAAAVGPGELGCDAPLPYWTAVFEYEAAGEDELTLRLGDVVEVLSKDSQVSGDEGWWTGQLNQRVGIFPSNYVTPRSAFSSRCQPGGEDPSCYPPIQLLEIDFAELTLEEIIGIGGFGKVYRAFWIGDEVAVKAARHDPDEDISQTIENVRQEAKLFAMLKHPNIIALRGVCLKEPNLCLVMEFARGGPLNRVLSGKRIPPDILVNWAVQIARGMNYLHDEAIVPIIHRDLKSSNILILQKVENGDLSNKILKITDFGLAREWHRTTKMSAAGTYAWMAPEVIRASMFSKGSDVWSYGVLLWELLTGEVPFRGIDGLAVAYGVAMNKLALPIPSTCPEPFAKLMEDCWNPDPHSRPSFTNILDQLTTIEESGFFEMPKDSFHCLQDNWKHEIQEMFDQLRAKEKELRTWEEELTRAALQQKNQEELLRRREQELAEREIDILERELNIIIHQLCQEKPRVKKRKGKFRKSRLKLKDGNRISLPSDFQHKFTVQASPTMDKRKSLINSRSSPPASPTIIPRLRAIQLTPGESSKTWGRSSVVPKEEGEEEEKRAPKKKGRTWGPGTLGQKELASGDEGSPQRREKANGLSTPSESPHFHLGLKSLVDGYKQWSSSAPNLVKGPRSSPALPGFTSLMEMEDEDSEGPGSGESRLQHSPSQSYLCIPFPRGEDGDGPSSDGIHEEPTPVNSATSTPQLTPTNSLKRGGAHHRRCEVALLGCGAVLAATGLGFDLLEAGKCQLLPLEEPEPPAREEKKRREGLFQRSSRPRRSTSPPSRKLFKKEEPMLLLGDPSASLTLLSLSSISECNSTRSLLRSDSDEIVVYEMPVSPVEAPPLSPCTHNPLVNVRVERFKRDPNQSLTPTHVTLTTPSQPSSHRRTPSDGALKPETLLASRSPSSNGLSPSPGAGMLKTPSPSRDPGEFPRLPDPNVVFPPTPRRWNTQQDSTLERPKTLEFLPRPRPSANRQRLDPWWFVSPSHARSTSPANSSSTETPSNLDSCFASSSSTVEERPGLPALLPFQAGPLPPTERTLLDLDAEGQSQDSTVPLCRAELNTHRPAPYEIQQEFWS
- assay_protocol: Radiolabeled ATP kinase assay (Reaction Biology Corp.), MLK1
- Format: biochemical
- run_conditions: [Cmpd] 0.1 μM; 10 μM ATP; read-out: % Enzyme Activity Remaining (relative to DMSO controls), MLK1/MAP3K9, Data 1
parameter: remaining activity at 0.1 µM (%)
# unit: % | format: bare number

q: State its remaining activity at 0.1 µM for this molecule: `CN1CCN(Cc2ccc(-c3cnc4[nH]cc(-c5cccc([N+](=O)[O-])c5)c4c3)cc2)CC1`
a: 62.7

q: Read the entry `CN1CCN(Cc2ccc(-c3cnc4[nH]cc(-c5ccc6cnn(C)c6c5)c4c3)cc2)CC1` and write its reported remaining activity at 0.1 µM.
a: 50.9

q: Input `COc1ccccc1-c1c[nH]c2ncc(-c3ccc(CN4CCN(C)CC4)cc3)cc12` , output reported remaining activity at 0.1 µM.
a: 31.3

q: Give remaining activity at 0.1 µM for `CN1CCN(Cc2ccc(-c3cnc4[nH]cc(-c5cccc(O)c5)c4c3)cc2)CC1`
a: 56.2

* * *

- target_or_system: panel of 60 human kinases (Homo sapiens, UniProt P24941)
- Construct: purchased Reaction Biology Corp
- assay_protocol: Radiolabeled ATP kinase assay, panel of 60 kinases (Table S5)
- Type: biochemical
- run_conditions: CDK2/cyclin E; 0.1 μM; 10 μM ATP; read-out: % Enzyme Activity (relative to DSMO controls)
Strictly below 90% in remaining activity at 0.1 µM: y. Otherwise: n.

q: hey, is remaining activity at 0.1 µM for `COc1ccccc1-c1c[nH]c2ncc(-c3ccc(CN4CCN(C)CC4)cc3)cc12` lower than 90% or not?
a: y

q: Lab note: confirm whether the reported remaining activity at 0.1 µM for this molecule is below 90%, equality not counting. molecule: `Cc1nn(C)c(C)c1-c1c[nH]c2ncc(-c3ccc(CN4CCN(C)CC4)cc3)cc12`
a: n

q: Report whether reported remaining activity at 0.1 µM is lower than 90% (strictly) for CN1CCN(Cc2ccc(-c3cnc4[nH]cc(-c5ccc6[nH]ccc6c5)c4c3)cc2)CC1 [Compound 1, reference compound]
a: n

q: For `CN1CCN(Cc2ccc(-c3cnc4[nH]cc(-c5ccncc5)c4c3)cc2)CC1` , is the recorded remaining activity at 0.1 µM below the cut-off of 90%?
a: y

q: Strictly below 90%: is that where remaining activity at 0.1 µM of `CN1CCN(Cc2ccc(-c3cnc4[nH]cc(-c5cccc(Cl)c5)c4c3)cc2)CC1` sits?
a: n

q: Record `CN1CCN(Cc2ccc(-c3cnc4[nH]cc(-c5cnn(Cc6ccccc6)c5)c4c3)cc2)CC1` : is its remaining activity at 0.1 µM strictly below 90%?
a: y

* * *

- target_or_system: panel of 60 human kinases (Homo sapiens, UniProt Q00536)
- Construct: purchased Reaction Biology Corp
- Sequence (Q00536 whole entry): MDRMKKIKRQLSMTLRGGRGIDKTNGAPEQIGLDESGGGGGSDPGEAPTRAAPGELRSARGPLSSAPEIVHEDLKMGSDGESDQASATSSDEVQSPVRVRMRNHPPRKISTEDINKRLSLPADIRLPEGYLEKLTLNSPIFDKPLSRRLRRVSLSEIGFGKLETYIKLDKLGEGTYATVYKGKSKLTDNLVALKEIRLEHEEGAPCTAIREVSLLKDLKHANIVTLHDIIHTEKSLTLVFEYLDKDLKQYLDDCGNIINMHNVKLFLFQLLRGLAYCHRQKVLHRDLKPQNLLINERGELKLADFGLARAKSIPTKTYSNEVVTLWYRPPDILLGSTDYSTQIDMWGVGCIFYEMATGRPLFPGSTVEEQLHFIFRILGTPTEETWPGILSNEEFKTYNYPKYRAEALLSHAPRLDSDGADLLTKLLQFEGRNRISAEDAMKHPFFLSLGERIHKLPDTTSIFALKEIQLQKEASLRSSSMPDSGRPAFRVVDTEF
- assay_protocol: Radiolabeled ATP kinase assay, panel of 60 kinases (Table S5)
- Assay type: biochemical
- run_conditions: CDK16/cyclin Y (PCTAIRE); 0.1 μM; 10 μM ATP; read-out: % Enzyme Activity (relative to DSMO controls)
parameter: remaining activity at 0.1 µM (%)
Reply with just the number (in %).

q: Find the measured remaining activity at 0.1 µM of `Cc1nn(C)c(C)c1-c1c[nH]c2ncc(-c3ccc(CN4CCN(C)CC4)cc3)cc12` and report it.
a: 87.7

q: Look up and report measured remaining activity at 0.1 µM for this entry: `CN1CCN(Cc2ccc(-c3cnc4[nH]cc(-c5cccc(Cl)c5)c4c3)cc2)CC1`
a: 96.9

q: Give me measured remaining activity at 0.1 µM, please, for this molecule: `CN1CCN(Cc2ccc(-c3cnc4[nH]cc(-c5ccoc5)c4c3)cc2)CC1`
a: 80.8

q: Determine its reported remaining activity at 0.1 µM: `COc1ccccc1-c1c[nH]c2ncc(-c3ccc(CN4CCN(C)CC4)cc3)cc12`
a: 76.9

q: For the molecule `CN1CCN(Cc2ccc(-c3cnc4[nH]cc(-c5cnn(Cc6ccccc6)c5)c4c3)cc2)CC1` , give its measured remaining activity at 0.1 µM value.
a: 8.19

q: Tell us which remaining activity at 0.1 µM value is on record for `CN1CCN(Cc2ccc(-c3cnc4[nH]cc(-c5ccc6c(c5)OCCO6)c4c3)cc2)CC1`
a: 58

q: Give remaining activity at 0.1 µM for CN1CCN(Cc2ccc(-c3cnc4[nH]cc(-c5ccc6[nH]ccc6c5)c4c3)cc2)CC1 [Compound 1, reference compound]
a: 94.9

q: Let me know recorded remaining activity at 0.1 µM for `CN1CCN(Cc2ccc(-c3cnc4[nH]cc(-c5ccncc5)c4c3)cc2)CC1` , thanks.
a: 21.5

q: Fill in reported remaining activity at 0.1 µM for this entry: `CN1CCN(Cc2ccc(-c3cnc4[nH]cc(-c5ccccc5Cl)c4c3)cc2)CC1`
a: 75.2

* * *

- assay_protocol: In vivo pharmacokinetics, IP injection or oral gavage, 10 mg/kg
- Parameters: species or system mouse
- run_conditions: male, mouse, brain/plasma, oral, OG, read-out: Brain/plasma ratio at 3 h
Exercise: state measured Kp at 3 h for each of the compounds provided.
No unit in the answer, please; the number alone is enough.

q: Supply recorded Kp at 3 h for CN1CCN(Cc2ccc(-c3cnc4[nH]cc(-c5ccc6[nH]ccc6c5)c4c3)cc2)CC1 [Compound 1, reference compound] here.
a: 0.18

q: Quickly give me recorded Kp at 3 h for OCCN1CCN(Cc2ccc(-c3cnc4[nH]cc(-c5cccc(Cl)c5)c4c3)cc2)CC1 [Compound 12k]
a: 2.58
